Listing of entries alongside the reported abundance fitness.
B1: Receptor-interacting serine/threonine-protein kinase 2, residues 438 to 518; numbered along this chain, O43353 (parent)
chain: QWIQSKREDIVNQMTEACLNQSLDALLSRDLIMKEDYELVSTKPTRTSKVRQLLDTTDIQGEEFAKVIVQKLKDNKQMGLQ

- Variants of: B1
- experiment.description: abundance fitness (aPCA) (normalised: wild type 0, dead -1); higher = more abundant; growth selection in yeast, the domain comes from the species named
- experimental.parameters: Homo sapiens
measure: abundance fitness

>  <variant.designation>
Q70P

>  <endpoint.result>
-0.567

$$$$
>  <variant.designation>
N75F

>  <endpoint.result>
-0.431

$$$$
>  <variant.designation>
F64T

>  <endpoint.result>
-0.142

$$$$
>  <variant.designation>
D36M

>  <endpoint.result>
-0.711

$$$$
>  <variant.designation>
V50A

>  <endpoint.result>
-0.842

$$$$
>  <variant.designation>
Q60L

>  <endpoint.result>
-0.321

$$$$
>  <variant.designation>
D74E

>  <endpoint.result>
-0.085

$$$$
>  <variant.designation>
E35P

>  <endpoint.result>
-0.304

$$$$
>  <variant.designation>
L39H

>  <endpoint.result>
-0.107

$$$$
>  <variant.designation>
A25N

>  <endpoint.result>
-0.343

$$$$
>  <variant.designation>
T47V

>  <endpoint.result>
-0.153

$$$$
>  <variant.designation>
S28E

>  <endpoint.result>
0.03

$$$$
>  <variant.designation>
R51T

>  <endpoint.result>
-0.255

$$$$
>  <variant.designation>
L23F

>  <endpoint.result>
-0.764

$$$$
>  <variant.designation>
S41P

>  <endpoint.result>
-0.599

$$$$
>  <variant.designation>
K71M

>  <endpoint.result>
-0.113

$$$$
>  <variant.designation>
L23S

>  <endpoint.result>
-0.616

$$$$
>  <variant.designation>
I68C

>  <endpoint.result>
-0.866

$$$$
>  <variant.designation>
A65T

>  <endpoint.result>
-0.85

$$$$
>  <variant.designation>
Q52S

>  <endpoint.result>
-0.196

$$$$
>  <variant.designation>
L39F

>  <endpoint.result>
-0.436

$$$$
>  <variant.designation>
K49H

>  <endpoint.result>
-0.628

$$$$
>  <variant.designation>
V69M

>  <endpoint.result>
0.003

$$$$
>  <variant.designation>
T56W

>  <endpoint.result>
0.125

$$$$
>  <variant.designation>
S41L

>  <endpoint.result>
0.069

$$$$
>  <variant.designation>
S41T

>  <endpoint.result>
-0.004

$$$$
>  <variant.designation>
S28V

>  <endpoint.result>
-0.175

$$$$
>  <variant.designation>
T47W

>  <endpoint.result>
-0.333

$$$$
>  <variant.designation>
D58F

>  <endpoint.result>
0.001

$$$$
>  <variant.designation>
D30C

>  <endpoint.result>
-0.332

$$$$
>  <variant.designation>
E63F

>  <endpoint.result>
-0.972

$$$$
>  <variant.designation>
K73D

>  <endpoint.result>
-0.269

$$$$
>  <variant.designation>
L72P

>  <endpoint.result>
-0.54

$$$$
>  <variant.designation>
L39K

>  <endpoint.result>
0.119

$$$$
>  <variant.designation>
S22A

>  <endpoint.result>
0.066

$$$$
>  <variant.designation>
L31I

>  <endpoint.result>
-0.973

$$$$
>  <variant.designation>
E63Y

>  <endpoint.result>
-0.839

$$$$
>  <variant.designation>
L26T

>  <endpoint.result>
-0.657

$$$$
>  <variant.designation>
Q21V

>  <endpoint.result>
-0.382

$$$$
>  <variant.designation>
T57D

>  <endpoint.result>
-0.28

$$$$
>  <variant.designation>
D36S

>  <endpoint.result>
-0.551

$$$$
>  <variant.designation>
D30V

>  <endpoint.result>
-0.657

$$$$
>  <variant.designation>
G61N

>  <endpoint.result>
-0.055

$$$$
>  <variant.designation>
Q52C

>  <endpoint.result>
-0.203

$$$$
>  <variant.designation>
R46T

>  <endpoint.result>
0.02

$$$$
>  <variant.designation>
D24R

>  <endpoint.result>
-0.169

$$$$

Hey, just so you know, these numbers are from the Human Domainome abundance scans (Beltran et al. 2025).
